relative IC50 by entry:
Tested on: BT-474
PROTOCOL TEXT: relative IC50 (midpoint of fitted logistic curve, plateau may be below 50% inhibition; CellTiter-Glo viability); higher = less potent
CONDITION INFO: 4-OH-tamoxifen in medium 0 µM; 72 h

Solved entries:
>  <STRUCTURE NOTATION>
Cc1ccc(C(=O)Nc2ccc(CN3CCN(C)CC3)c(C(F)(F)F)c2)cc1C#Cc1cnc2cccnn12

>  <METRIC>
relative IC50

>  <VALUE MEASURED>
> 1000 nM

$$$$
>  <STRUCTURE NOTATION>
CN1CCN(CCOc2cc(OC3CCOCC3)c3c(Nc4c(Cl)ccc5c4OCO5)ncnc3c2)CC1

>  <METRIC>
relative IC50

>  <VALUE MEASURED>
2150 nM

$$$$
>  <STRUCTURE NOTATION>
C=CCN(/C=C1/C(=O)O[C@H](COC)[C@@]2(C)C1=C(O)C(=O)C1=C2[C@H](OC(C)=O)C[C@]2(C)C(=O)CC[C@@H]12)CC=C

>  <METRIC>
relative IC50

>  <VALUE MEASURED>
> 10000 nM

$$$$
>  <STRUCTURE NOTATION>
CNC(=O)c1cc(Oc2ccc(NC(=O)Nc3ccc(Cl)c(C(F)(F)F)c3)cc2)ccn1

>  <METRIC>
relative IC50

>  <VALUE MEASURED>
> 1000 nM

$$$$
>  <STRUCTURE NOTATION>
C=CC(=O)N1CCC[C@@H](n2nc(-c3ccc(Oc4ccccc4)cc3)c3c(N)ncnc32)C1

>  <METRIC>
relative IC50

>  <VALUE MEASURED>
13.4 nM

$$$$
>  <STRUCTURE NOTATION>
NCCCNCCSP(=O)(O)O

>  <METRIC>
relative IC50

>  <VALUE MEASURED>
> 10000 nM

$$$$

Quick check: relative IC50 of "CCC/C=C/C=C/C(=O)O[C@H]1/C(=C/C(=O)OC)C[C@H]2C[C@H]([C@@H](C)O)OC(=O)C[C@H](O)C[C@@H]3C[C@H](OC(C)=O)C(C)(C)[C@](O)(C[C@@H]4C/C(=C/C(=O)OC)C[C@H](/C=C/C(C)(C)[C@]1(O)O2)O4)O3" ?
> 100 nM

Same thing, different compound: "Cc1ccc(F)c(NC(=O)Nc2ccc(-c3cccc4[nH]nc(N)c34)cc2)c1"
> 1000 nM

====

System: BT-474
PROTOCOL TEXT: viability inhibition at highest dose (% inhibition); higher = more growth inhibition
CONDITION INFO: 4-OH-tamoxifen in medium 1 µM; 72 h
viability inhibition at highest dose by entry:
Lab note: jot the number down without any unit.

>  <COMPOUND>
Cn1nnc2c(C(N)=O)ncn2c1=O [Temozolomide] (drug 10000 nM)

>  <VALUE MEASURED>
22.9

$$$$

Quick check: viability inhibition at highest dose of CO[C@H]1C[C@@H]2CC[C@@H](C)[C@@](O)(O2)C(=O)C(=O)N2CCCC[C@H]2C(=O)O[C@H]([C@H](C)C[C@@H]2CC[C@@H](OCCO)[C@H](OC)C2)CC(=O)[C@H](C)/C=C(\C)[C@@H](O)[C@@H](OC)C(=O)[C@H](C)C[C@H](C)/C=C/C=C/C=C/1C [Everolimus] (drug 100 nM) ?
11.4

Same thing, different compound: CC/C(=C(\c1ccc(O)cc1)c1ccc(OCCN(C)C)cc1)c1ccccc1 [4-hydroxytamoxifen] (drug 10000 nM)
97.2

Same thing, different compound: CC(C)C[C@H](NC(=O)[C@@H](COC(C)(C)C)NC(=O)[C@H](Cc1ccc(O)cc1)NC(=O)[C@H](CO)NC(=O)[C@H](Cc1c[nH]c2ccccc12)NC(=O)[C@H](Cc1cnc[nH]1)NC(=O)[C@@H]1CCC(=O)N1)C(=O)N[C@@H](CCCNC(=N)N)C(=O)N1CCC[C@H]1C(=O)NNC(N)=O [Goserelin acetate] (drug 10000 nM)
-17.3
